# assay-target: GRK7 (human)
# method: radiometric filter-binding kinase assay, Kinase HotSpot
# cond: compound 0.5 µM; ATP 10 µM
Would you kindly list residual activity for each of these compounds?

IN: Reported residual activity for GRK7 (human), given "Cn1sc(=O)n(Cc2ccccc2)c1=O" ?
OUT: 112%

IN: Reported residual activity for GRK7 (human), given "Cn1nc2c3c(cccc31)C(=O)c1ccccc1-2" ?
OUT: 113%

IN: Reported residual activity for GRK7 (human), given "CC(=O)O/N=C1\C(=C2\C(=O)Nc3cc(Br)ccc32)Nc2ccccc21" ?
OUT: 99.5%

IN: Reported residual activity for GRK7 (human), given "CCN(CC)CCCCN1c2ccccc2Oc2ccc(Cl)cc21" ?
OUT: 96.2%

IN: Reported residual activity for GRK7 (human), given "COc1ccc(OC)c2c(=S)c3ccccc3[nH]c12" ?
OUT: 102%

IN: Reported residual activity for GRK7 (human), given "O=C1Nc2ccccc2/C1=C1\Nc2ccccc2\C1=N/O" ?
OUT: 84.4%

IN: Reported residual activity for GRK7 (human), given "CN([C@@H](Cc1ccc(OS(=O)(=O)c2cccc3cnccc23)cc1)C(=O)N1CCN(c2ccccc2)CC1)S(=O)(=O)c1cccc2cnccc12" ?
OUT: 105%

IN: Reported residual activity for GRK7 (human), given "O=C(O)/C=C/c1cc(Br)c(Br)c(Br)c1Br" ?
OUT: 105%

IN: Reported residual activity for GRK7 (human), given O=C1Nc2ccccc2/C1=C1/Nc2ccccc2/C1=N\OCCC(O)CO (stereo not given) ?
OUT: 70.3%

IN: Reported residual activity for GRK7 (human), given "CC(C)c1nn(-c2c(Cl)cccc2Cl)c2nc(Cc3ccc(OCCO)cc3)nc(O)c12" ?
OUT: 106%

IN: Reported residual activity for GRK7 (human), given "Cn1cnc2cc3c(Nc4cccc(Br)c4)ncnc3cc21" ?
OUT: 106%

IN: Reported residual activity for GRK7 (human), given "O=C(Nc1cccc(Nc2cc(Nc3cccc(C(F)(F)F)c3)ncn2)c1)C1CC1" ?
OUT: 99%

IN: Reported residual activity for GRK7 (human), given "O=C1NC(=O)C(c2c[nH]c3ccccc23)=C1c1c[nH]c2ccccc12" ?
OUT: 91.8%

IN: Reported residual activity for GRK7 (human), given "COc1cc2ncc(-c3ccccc3)nc2cc1OC" ?
OUT: 105%

IN: Reported residual activity for GRK7 (human), given "O=C1NC(=O)/C(=C\c2ccc3nccnc3c2)S1" ?
OUT: 99.8%

====

Would you kindly list residual activity for each of these compounds?
# assay-target: RPS6KA1 KD1 KD2 (human)
# method: radiometric filter-binding kinase assay, Kinase HotSpot
# cond: compound 0.5 µM; ATP 10 µM
The response must be a number in % with no trailing unit.

IN: // lookup residual activity for "CC(C)[C@H](CO)Nc1nc(Nc2cc(N)cc(Cl)c2)c2ncn(C(C)C)c2n1"
OUT: 37.2

IN: // lookup residual activity for "CN(C)C[C@H]1CCn2c(c(C3=C(c4cn(C)c5ccccc45)C(=O)NC3=O)c3ccccc32)C1"
OUT: 5.9

IN: // lookup residual activity for "O=C1NC(=O)/C(=C\c2ccc3nccnc3c2)S1"
OUT: 80.7

IN: // lookup residual activity for "Nc1nnc2[nH]c3ccccc3nc1-2"
OUT: 97.9

IN: // lookup residual activity for "COc1cc2ncc(-c3ccccc3)nc2cc1OC"
OUT: 88.4

IN: // lookup residual activity for O=C1Nc2ccccc2/C1=C1/Nc2ccccc2/C1=N\OCCC(O)CO (configuration not stated)
OUT: 8.85

IN: // lookup residual activity for "O=C1Cc2c([nH]c3ccc(Br)cc23)-c2ccccc2N1"
OUT: 90.8

IN: // lookup residual activity for "Cn1sc(=O)n(Cc2ccccc2)c1=O"
OUT: 97.6

IN: // lookup residual activity for "Oc1ccc(Nc2nc(-c3ccc(Cl)cc3)cs2)cc1"
OUT: 97.7

IN: // lookup residual activity for "CCN(CC)CCCCN1c2ccccc2Oc2ccc(Cl)cc21"
OUT: 97.5

IN: // lookup residual activity for "COc1cc2ncnc(N3CCN(C(=O)Nc4ccc(Oc5ccccc5)cc4)CC3)c2cc1OC"
OUT: 82

IN: // lookup residual activity for "COc1ccc(CNC(=O)Nc2ncc([N+](=O)[O-])s2)cc1"
OUT: 96.4

====

# assay-target: RPS6KA2 KD1 KD2 (human)
# method: radiometric filter-binding kinase assay, Kinase HotSpot
# cond: compound 0.5 µM; ATP 10 µM
value-kind: residual activity (%)
The response must be a number in % with no trailing unit.

IN: // lookup residual activity for "COc1ccc(CNC(=O)Nc2ncc([N+](=O)[O-])s2)cc1"
OUT: 100

IN: // lookup residual activity for "Cn1sc(=O)n(Cc2ccccc2)c1=O"
OUT: 104

IN: // lookup residual activity for "Nc1nccc(-c2c(-c3ccc(F)cc3)ncn2C2CCNCC2)n1"
OUT: 99.3

IN: // lookup residual activity for O=C1Nc2ccccc2/C1=C1/Nc2ccccc2/C1=N\OCCC(O)CO (stereo not given)
OUT: 12.1

IN: // lookup residual activity for "O=C1Nc2ccccc2/C1=C1\Nc2ccccc2\C1=N/O"
OUT: 42.6

====

# assay-target: MARK1 (human) (UniProt Q9P0L2)
# Sequence (Q9P0L2 whole entry, looked up): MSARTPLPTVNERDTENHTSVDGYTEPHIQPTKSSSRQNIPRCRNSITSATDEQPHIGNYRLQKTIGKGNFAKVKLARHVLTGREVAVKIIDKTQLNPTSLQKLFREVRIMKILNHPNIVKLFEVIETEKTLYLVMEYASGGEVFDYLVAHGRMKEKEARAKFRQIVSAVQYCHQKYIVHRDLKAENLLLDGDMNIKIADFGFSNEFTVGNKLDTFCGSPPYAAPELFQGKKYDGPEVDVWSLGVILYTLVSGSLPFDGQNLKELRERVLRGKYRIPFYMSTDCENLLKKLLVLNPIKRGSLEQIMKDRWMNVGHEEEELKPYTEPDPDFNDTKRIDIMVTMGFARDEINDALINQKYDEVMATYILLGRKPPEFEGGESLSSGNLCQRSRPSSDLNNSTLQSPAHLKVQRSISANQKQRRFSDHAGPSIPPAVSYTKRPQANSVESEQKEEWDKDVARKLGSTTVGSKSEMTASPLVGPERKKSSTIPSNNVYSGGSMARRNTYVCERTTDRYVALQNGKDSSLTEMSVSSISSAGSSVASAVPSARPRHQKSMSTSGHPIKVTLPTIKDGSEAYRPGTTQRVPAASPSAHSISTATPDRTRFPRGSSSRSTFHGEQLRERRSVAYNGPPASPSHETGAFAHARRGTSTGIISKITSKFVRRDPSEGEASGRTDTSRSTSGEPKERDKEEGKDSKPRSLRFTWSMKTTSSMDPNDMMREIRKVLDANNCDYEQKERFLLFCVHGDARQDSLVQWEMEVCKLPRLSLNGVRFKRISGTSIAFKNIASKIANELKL
# method: radiometric filter-binding kinase assay, Kinase HotSpot
# cond: compound 0.5 µM; ATP 10 µM
value-kind: residual activity (%)
The response must be a number in % with no trailing unit.

IN: // lookup residual activity for "O=C1Cc2c([nH]c3ccc(Br)cc23)-c2ccccc2N1"
OUT: 88.3

IN: // lookup residual activity for "COc1ccc(OC)c2c(=S)c3ccccc3[nH]c12"
OUT: 88.3

IN: // lookup residual activity for "CCn1cnc2c(Nc3cccc(Cl)c3)nc(N[C@@H]3CCCC[C@@H]3N)nc21"
OUT: 93.1

IN: // lookup residual activity for "COc1ccc(CNC(=O)Nc2ncc([N+](=O)[O-])s2)cc1"
OUT: 106

IN: // lookup residual activity for "COc1cc2ncnc(N3CCN(C(=O)Nc4ccc(Oc5ccccc5)cc4)CC3)c2cc1OC"
OUT: 99.1

IN: // lookup residual activity for "O=C(O)/C=C/c1cc(Br)c(Br)c(Br)c1Br"
OUT: 93.7

IN: // lookup residual activity for "O=C1Nc2ccccc2/C1=C1\Nc2ccccc2\C1=N/O"
OUT: 74.8

IN: // lookup residual activity for "Cn1cnc2cc3c(Nc4cccc(Br)c4)ncnc3cc21"
OUT: 94.3

IN: // lookup residual activity for "Nc1nnc2[nH]c3ccccc3nc1-2"
OUT: 95.7

IN: // lookup residual activity for "CN([C@@H](Cc1ccc(OS(=O)(=O)c2cccc3cnccc23)cc1)C(=O)N1CCN(c2ccccc2)CC1)S(=O)(=O)c1cccc2cnccc12"
OUT: 96.7

IN: // lookup residual activity for "COc1cc2ncc(-c3ccccc3)nc2cc1OC"
OUT: 92.6

====

# assay-target: ACVRL1 (human) (UniProt P37023)
# Sequence (P37023 whole entry, looked up): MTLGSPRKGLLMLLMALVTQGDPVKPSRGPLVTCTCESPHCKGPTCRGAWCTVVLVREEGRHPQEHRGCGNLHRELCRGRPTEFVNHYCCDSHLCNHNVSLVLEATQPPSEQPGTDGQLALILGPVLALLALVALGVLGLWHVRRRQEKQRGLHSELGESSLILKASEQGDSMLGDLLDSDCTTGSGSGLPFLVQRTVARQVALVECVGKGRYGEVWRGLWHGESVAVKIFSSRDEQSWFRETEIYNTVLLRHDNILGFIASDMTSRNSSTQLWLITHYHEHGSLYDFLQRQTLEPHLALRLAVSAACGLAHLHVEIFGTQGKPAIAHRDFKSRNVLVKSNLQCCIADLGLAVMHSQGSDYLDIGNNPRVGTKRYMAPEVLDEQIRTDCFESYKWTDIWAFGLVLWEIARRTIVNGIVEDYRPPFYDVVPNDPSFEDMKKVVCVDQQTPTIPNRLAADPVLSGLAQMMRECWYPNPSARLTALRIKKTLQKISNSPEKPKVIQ
# method: radiometric filter-binding kinase assay, Kinase HotSpot
# cond: compound 0.5 µM; ATP 10 µM
Would you kindly list residual activity for each of these compounds?
The response must be a number in % with no trailing unit.

IN: // lookup residual activity for "CN([C@@H](Cc1ccc(OS(=O)(=O)c2cccc3cnccc23)cc1)C(=O)N1CCN(c2ccccc2)CC1)S(=O)(=O)c1cccc2cnccc12"
OUT: 103

IN: // lookup residual activity for "O=C1Cc2c([nH]c3ccc(Br)cc23)-c2ccccc2N1"
OUT: 99

IN: // lookup residual activity for "CN(C)C[C@H]1CCn2c(c(C3=C(c4cn(C)c5ccccc45)C(=O)NC3=O)c3ccccc32)C1"
OUT: 98.5

IN: // lookup residual activity for "O=C(Nc1cccc(Nc2cc(Nc3cccc(C(F)(F)F)c3)ncn2)c1)C1CC1"
OUT: 114

IN: // lookup residual activity for "O=C(O)/C=C/c1cc(Br)c(Br)c(Br)c1Br"
OUT: 103

IN: // lookup residual activity for "COc1cc2ncnc(N3CCN(C(=O)Nc4ccc(Oc5ccccc5)cc4)CC3)c2cc1OC"
OUT: 93

IN: // lookup residual activity for "Nc1nccc(-c2c(-c3ccc(F)cc3)ncn2C2CCNCC2)n1"
OUT: 95.6

IN: // lookup residual activity for "CCn1cnc2c(Nc3cccc(Cl)c3)nc(N[C@@H]3CCCC[C@@H]3N)nc21"
OUT: 99.9

IN: // lookup residual activity for "Cc1nc2cc3nc(-c4cccs4)cnc3cc2n1C"
OUT: 109

IN: // lookup residual activity for "Cn1cnc2cc3c(Nc4cccc(Br)c4)ncnc3cc21"
OUT: 102

IN: // lookup residual activity for "O=C1NC(=O)/C(=C\c2ccc3nccnc3c2)S1"
OUT: 107

IN: // lookup residual activity for "O=C1NC(=O)C(c2c[nH]c3ccccc23)=C1c1c[nH]c2ccccc12"
OUT: 96.5

IN: // lookup residual activity for "O=C(CCCc1ccc(-c2ccccc2F)cc1)Nc1ccc(O)cc1"
OUT: 101

IN: // lookup residual activity for "O=C1Nc2ccccc2/C1=C1\Nc2ccccc2\C1=N/O"
OUT: 108

IN: // lookup residual activity for "CCN(CC)CCCCN1c2ccccc2Oc2ccc(Cl)cc21"
OUT: 102

IN: // lookup residual activity for "Oc1ccc(Nc2nc(-c3ccc(Cl)cc3)cs2)cc1"
OUT: 103
